Provenance of the data: patent US20260242362A1

assay-target: kappa opioid receptor (Homo sapiens)
assay-summary: PathHunter DiscoverX β-arrestin2 recruitment (enzyme fragment complementation) assay
Assay type: cell-based
protocol-conditions: 3 parameter nonlinear regression; nc = did not converge; read-out: β-arrestin2 EC50
Sequence (P41145 whole entry, the tested form may be a part): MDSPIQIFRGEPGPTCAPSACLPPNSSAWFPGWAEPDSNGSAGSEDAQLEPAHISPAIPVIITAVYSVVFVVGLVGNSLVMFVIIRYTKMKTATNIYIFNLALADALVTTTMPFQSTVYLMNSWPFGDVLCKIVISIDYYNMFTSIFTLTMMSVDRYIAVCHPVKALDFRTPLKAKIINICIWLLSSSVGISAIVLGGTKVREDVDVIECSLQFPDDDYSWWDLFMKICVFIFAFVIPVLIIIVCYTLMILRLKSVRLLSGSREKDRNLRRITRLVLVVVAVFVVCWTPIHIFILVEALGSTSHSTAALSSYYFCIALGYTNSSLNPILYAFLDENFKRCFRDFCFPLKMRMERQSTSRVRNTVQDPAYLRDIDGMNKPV
Sequence (P32121 whole entry partner, the tested form may be a part): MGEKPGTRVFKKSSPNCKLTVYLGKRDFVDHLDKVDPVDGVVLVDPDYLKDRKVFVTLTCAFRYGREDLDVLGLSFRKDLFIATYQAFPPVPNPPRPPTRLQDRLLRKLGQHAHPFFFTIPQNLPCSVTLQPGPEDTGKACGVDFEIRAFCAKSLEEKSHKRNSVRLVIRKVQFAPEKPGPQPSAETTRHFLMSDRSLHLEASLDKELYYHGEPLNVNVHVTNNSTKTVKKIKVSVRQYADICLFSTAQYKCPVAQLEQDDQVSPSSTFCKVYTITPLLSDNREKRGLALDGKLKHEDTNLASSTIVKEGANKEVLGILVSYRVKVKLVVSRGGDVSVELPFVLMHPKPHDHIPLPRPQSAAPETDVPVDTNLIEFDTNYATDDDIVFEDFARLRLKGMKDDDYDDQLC

compound | value-qualifier | EC50, µM
Cc1ccc(/C=C/c2nnc(-c3ccccn3)n2Cc2ccco2)cc1C(F)(F)F (single isomer, unassigned) [Compound 40] | = | 7.2
Cc1ccc(CCc2nnc(-c3ccc4ccccc4n3)n2Cc2cccs2)cc1C(F)(F)F | > | 10
Cn1ccnc1-c1nnc(CCc2ccc(Cl)cc2)n1Cc1nccs1 | = | 5.02
Cc1ccc(/C=C/c2nnc(-c3nccn3C)n2Cc2cccs2)cc1C(F)(F)F [52 (UNC9166)] | = | 55.8

====

assay-summary: Microsomal stability, LC/MS detection over time
protocol-conditions: mouse hepatic microsomes
reported-endpoint: Microsomal Stability (min)

smiles-data | val
Cc1ccc(CSc2nnc(-c3ccccn3)n2Cc2ccco2)cc1C(F)(F)F | 1.1
Cc1ccc(CCc2nnc(-c3ccccn3)n2Cc2ccco2)cc1C(F)(F)F | 0.9
Clc1ccc(CCc2nnc(-c3ccccn3)n2Cc2cccs2)c(Cl)c1 | 2.1
Clc1ccc(CCc2nnc(-c3ccccn3)n2Cc2cccs2)cc1Cl | 1.5

====

assay-target: kappa opioid receptor (Homo sapiens)
assay-summary: GTPγS binding assay (G-protein activation)
Format: biochemical
protocol-conditions: relative to U69,593 = 100% Emax
Sequence (P41145 whole entry, the tested form may be a part): as the sequence (P41145 whole entry, the tested form may be a part) above
reported-endpoint: GTPγS Emax (% U60)

compound | assay-target | val
Cc1ccc(CCCc2nnc(-c3ccccn3)n2Cc2ccco2)cc1C(F)(F)F [Compound 3] | kappa opioid receptor (Homo sapiens) | 74
Cc1ccc(/C=C/c2nnc(-c3nccn3C)n2Cc2cccs2)cc1C(F)(F)F [52 (UNC9166)] | kappa opioid receptor (Homo sapiens) | 74.2
Cc1ccc(/C=C/c2nnc(-c3ccccn3)n2Cc2ccco2)cc1C(F)(F)F [42 (UNC9008)] | kappa opioid receptor (Homo sapiens) | 96.5
Cc1ccc(CN(Cc2ccco2)C(=O)c2ccccn2)cc1C(F)(F)F [Compound 57] | kappa opioid receptor (Homo sapiens) | 92
Cc1ccc(CCc2nnc(-c3ccccn3)n2Cc2nccs2)cc1C(F)(F)F [Compound 7] | kappa opioid receptor (Homo sapiens) | 63
Cc1ccc(CCN(CCc2ccco2)C(=O)c2ccccn2)cc1C(F)(F)F [Compound 61] | kappa opioid receptor (Homo sapiens) | 78
Cc1ccc(/C=C/c2nnc(-c3nccn3C)n2Cc2ccco2)cc1C(F)(F)F [51 (UNC9012)] | kappa opioid receptor (Homo sapiens) | 76.1
Cc1ccc(/C=C/c2nnc(-c3ccccn3)n2Cc2ccco2)cc1C(F)(F)F (single isomer, unassigned) [Compound 40] | kappa opioid receptor (Homo sapiens) | 97

====

Here, each record is paired with measured EC50 data.
assay-target: kappa opioid receptor (Homo sapiens, UniProt P41145)
assay-summary: PathHunter DiscoverX β-arrestin2 recruitment (enzyme fragment complementation) assay
Type: cell-based
protocol-conditions: 3 parameter nonlinear regression; nc = did not converge; read-out: β-arrestin2 EC50

molecule | output-unit | value-qualifier | EC50
Brc1ccccc1CCc1nnc(-c2ccccn2)n1Cc1cccs1 | µM | > | 10
Cc1ccc(CCc2nnc(-c3ccccn3)n2Cc2ccsc2)cc1C(F)(F)F | µM | = | 0.813
FC(Cc1nnc(-c2ccccn2)n1Cc1cccs1)c1ccccc1 (stereo not drawn) | µM | > | 10
Cc1ccc(CN(Cc2ccco2)C(=O)c2ccccn2)cc1C(F)(F)F | µM | = | 3.13
Cc1ccc(CCc2nnc(-c3ccncn3)n2Cc2cccs2)cc1C(F)(F)F | µM | > | 10
Cc1ccc(CCc2nnc(-c3cccn3C)n2Cc2cccs2)cc1C(F)(F)F | µM | = | 1.32
Cc1ccc(/C=C/c2nnc(-c3nccn3C)n2Cc2nccs2)cc1C(F)(F)F [53 (UNC9081)] | µM | = | 1.57
Cc1ccc(CCc2nnc(-c3nccn3C)n2Cc2cccs2)cc1C(F)(F)F | µM | = | 0.888
Clc1ccc(CCc2nnc(-c3ccccn3)n2Cc2ccco2)cc1 | µM | = | 4.53
Cc1ccc(CCc2nnc(-c3ncccc3C)n2Cc2cccs2)cc1C(F)(F)F | µM | = | 1.55
Cc1ccc(/C=C/c2nnc(-c3ccccn3)n2Cc2cccs2)cc1C(F)(F)F | µM | = | 20.6
Clc1ccc(CCc2nnc(-c3ccccn3)n2Cc2cccs2)cc1 | µM | = | 3.74
Brc1cccc(CCc2nnc(-c3ccccn3)n2Cc2cccs2)c1 | µM | = | 5.02
Cc1ccc(CCc2nnc(-c3ccccn3)n2Cc2cccnc2)cc1C(F)(F)F | µM | = | 0.479
COc1ccc(CCc2nnc(-c3ccccn3)n2Cc2cccs2)cc1 | µM | > | 10
Cc1ccc(CCc2nnc(-c3ccccn3)n2Cc2ncco2)cc1C(F)(F)F | µM | = | 0.532
Cc1ccc(CCc2nnc(-c3ccccn3)n2Cc2nccs2)cc1C(F)(F)F | µM | = | 3.57
Brc1ccc(CCc2nnc(-c3ccccn3)n2Cc2cccs2)cc1 | µM | = | 0.963
Cc1ccc(CCc2nnc(-c3cccc4ccccc34)n2Cc2cccs2)cc1C(F)(F)F | µM | > | 10
FC(F)(F)c1ccc(CCc2nnc(-c3ccccn3)n2Cc2cccs2)cc1Cl | µM | = | 0.127
Cc1ccc(CCc2nnc(-c3ccccn3)n2Cc2cccs2)cc1C(F)(F)F | µM | = | 0.624
Cc1ccc(CCc2nnc(-c3ccccn3)n2Cc2ccccc2)cc1C(F)(F)F | µM | = | 6.34
Cc1ccc(CCc2nnc(-c3nccn3C)n2Cc2ccco2)cc1C(F)(F)F | µM | = | 0.788
Cc1ccc(CCc2nnc(-c3ccccc3)n2Cc2cccs2)cc1C(F)(F)F | µM | > | 10
Cc1ccc(/C=C/c2nnc(-c3nccn3C)n2Cc2nccs2)cc1C(F)(F)F [Compound 51] | µM | = | 1.68
FC(Cc1ccccc1)c1nnc(-c2ccccn2)n1Cc1ccco1 (stereo not drawn) | µM | > | 10
Fc1ccc(CCc2nnc(-c3ccccn3)n2Cc2cccs2)cc1 | µM | = | 3.02
Cc1ccc(CCCN(CCCc2ccco2)C(=O)c2ccccn2)cc1C(F)(F)F | µM | > | 10
Cc1ccc(CCN(CCc2ccco2)C(=O)c2ccccn2)cc1C(F)(F)F | µM | > | 10
Cc1ccc(CCc2nnc(-c3ccccn3)n2Cc2ccccn2)cc1C(F)(F)F | µM | = | 7.69
Cc1ccc(/C=C/c2nnc(-c3ccccn3)n2Cc2ccco2)cc1C(F)(F)F [42 (UNC9008)] | µM | = | 51.3
Cc1ccc(CCc2nnc(-c3ccccn3)n2CC2CCCO2)cc1C(F)(F)F (stereo not drawn) [Compound 17a] | µM | = | 5.43
c1ccc(-c2nnc(CCc3cccc4ccccc34)n2Cc2cccs2)nc1 | µM | > | 10
Cc1ccc(/C=C/c2nnc(-c3nccn3C)n2Cc2cccs2)cc1C(F)(F)F [Compound 50] | µM | = | 55.8
Cc1ccc(CCc2nnc(-c3ncccn3)n2Cc2cccs2)cc1C(F)(F)F | µM | = | 2.18
FC(F)(F)c1ccccc1CCc1nnc(-c2ccccn2)n1Cc1cccs1 | µM | > | 10
